Molecular target: T1, MutS (Escherichia coli, UniProt P23909 1-853)
T1 sequence: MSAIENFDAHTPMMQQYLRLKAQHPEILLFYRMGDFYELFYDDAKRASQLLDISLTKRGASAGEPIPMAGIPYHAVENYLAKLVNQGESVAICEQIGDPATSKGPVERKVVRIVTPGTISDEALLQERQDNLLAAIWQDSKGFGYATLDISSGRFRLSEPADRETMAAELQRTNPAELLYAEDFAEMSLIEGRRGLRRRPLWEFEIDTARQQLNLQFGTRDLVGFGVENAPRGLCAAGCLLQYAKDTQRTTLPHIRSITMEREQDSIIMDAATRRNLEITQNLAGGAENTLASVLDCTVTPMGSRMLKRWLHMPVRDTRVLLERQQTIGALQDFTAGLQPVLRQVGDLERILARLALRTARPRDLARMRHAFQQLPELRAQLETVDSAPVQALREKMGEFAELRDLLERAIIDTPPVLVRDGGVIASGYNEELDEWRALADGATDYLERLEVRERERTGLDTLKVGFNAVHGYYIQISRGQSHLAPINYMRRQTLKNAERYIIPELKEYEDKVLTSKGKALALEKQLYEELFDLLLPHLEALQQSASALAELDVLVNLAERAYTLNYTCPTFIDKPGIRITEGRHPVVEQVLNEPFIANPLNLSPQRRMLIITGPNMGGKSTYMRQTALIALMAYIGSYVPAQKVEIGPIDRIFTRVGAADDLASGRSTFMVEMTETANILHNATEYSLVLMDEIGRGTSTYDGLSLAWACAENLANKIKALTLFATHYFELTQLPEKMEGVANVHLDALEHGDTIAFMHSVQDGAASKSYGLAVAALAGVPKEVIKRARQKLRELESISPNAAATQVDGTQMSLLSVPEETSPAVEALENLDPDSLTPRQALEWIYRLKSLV
Assay: stopped-flow FRET kinetics
quantity measured: pKd
The quantity pKd is defined as the negative base-10 logarithm of the molar concentration.

Q. Requested read-out: pKd. Entry: 30-1ΔT (dsDNA) DNA 1: AACTGCCAGGCACCAGTGTCAGCGTCGTAT DNA 2: ATACGACGCTGACACTGGTGCCTTGGCAGTT
A. 7.57
